Data origin: patent US8546375B2

target.under.test: Melanin Concentrating Hormone Receptor 1 (MCHR1) (Homo sapiens)
Construct: expressed in transfected cells
assay.remarks: MCHR1 Receptor Activation Assay (GTPγ^35S)
Assay type: biochemical
test.conditions: read-out: GTPγ^35S IC50
Where a name gives a salt, the structure may show the parent alone.
recorded.endpoint: IC50 (µM)

{"compound": "CC1(CO)CCN(Cc2ccc(OC3CN(C(=O)c4nnc(-c5ccccc5)o4)C3)cc2)C1 (centres unmarked) [Example 85]", "quantity.unit": "µM", "IC50": 0.019}
{"compound": "CN(C)Cc1ccc(OC2CN(C(=O)c3nnc(-c4ccccc4)o3)C2)cc1F [Example 26]", "quantity.unit": "µM", "IC50": 0.03}
{"compound": "Cc1cc(OC2CN(C(=O)c3nnc(-c4ccccc4)o3)C2)ccc1CN(C)C [Example 21]", "quantity.unit": "µM", "IC50": 0.022}
{"compound": "Cc1cc(OC2CN(C(=O)c3nnc(-c4ccccc4)o3)C2)ccc1CN1CCC(C)(CO)CC1 [Example 69]", "quantity.unit": "µM", "IC50": 0.022}

[I] CN(C)Cc1ccc(OC2CN(C(=O)c3nnc(-c4ccc(Cl)cc4)o3)C2)cc1 [Example 36]
[II] CNCc1ccc(SC2CN(C(=O)c3nnc(-c4ccccc4)o3)C2)cc1 [Example 63, hydrochloride]
Query: Between the entries labelled I and II , which has a larger IC50 value on record? Indicate which entry you chose by stating its label.
Reply: II
(II: 0.023 µM, I: 0.013 µM)

----------
target.under.test: Melanin Concentrating Hormone Receptor 1 (MCHR1) (Homo sapiens, UniProt Q99705)
Construct: expressed in transfected cells
Sequence (Q99705 whole entry): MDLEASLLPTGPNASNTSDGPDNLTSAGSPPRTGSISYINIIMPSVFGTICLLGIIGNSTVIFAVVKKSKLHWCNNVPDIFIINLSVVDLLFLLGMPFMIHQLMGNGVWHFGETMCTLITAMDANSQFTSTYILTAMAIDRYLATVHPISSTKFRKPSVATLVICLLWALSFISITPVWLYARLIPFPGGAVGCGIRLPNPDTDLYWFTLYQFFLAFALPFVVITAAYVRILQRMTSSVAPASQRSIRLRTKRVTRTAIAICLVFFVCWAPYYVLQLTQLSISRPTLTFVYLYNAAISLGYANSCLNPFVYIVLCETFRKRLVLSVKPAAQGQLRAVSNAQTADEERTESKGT
assay.remarks: MCHR1 Receptor Activation Assay (GTPγ^35S)
Format: biochemical
test.conditions: read-out: GTPγ^35S IC50
recorded.endpoint: IC50 (µM)

{"structure.smiles": "Cc1cc(OC2CN(C(=O)c3nnc(-c4ccc(OC(F)F)cc4)o3)C2)ccc1CN(C)C", "target.under.test": "Melanin Concentrating Hormone Receptor 1 (MCHR1) (Homo sapiens, UniProt Q99705)", "experimental.result": 0.011}
{"structure.smiles": "COc1ccc(-c2nnc(C(=O)N3CC(Oc4ccc(CN5CCC(F)(CO)CC5)cc4)C3)o2)cc1", "target.under.test": "Melanin Concentrating Hormone Receptor 1 (MCHR1) (Homo sapiens, UniProt Q99705)", "experimental.result": 0.025}
{"structure.smiles": "COc1ccc(-c2nnc(C(=O)N3CC(Oc4ccc(CN5CCCC5)c(OC)c4C)C3)o2)cc1", "target.under.test": "Melanin Concentrating Hormone Receptor 1 (MCHR1) (Homo sapiens, UniProt Q99705)", "experimental.result": 0.024}
{"structure.smiles": "COc1ccc(-c2nnc(C(=O)N3CC(Oc4ccc(CN5CCCC5)c(C(F)(F)F)c4)C3)o2)cc1", "target.under.test": "Melanin Concentrating Hormone Receptor 1 (MCHR1) (Homo sapiens, UniProt Q99705)", "experimental.result": 0.018}
{"structure.smiles": "CNCc1ccc(OC2CN(C(=O)c3nnc(-c4ccc(OC)cc4)o3)C2)c(C)c1", "target.under.test": "Melanin Concentrating Hormone Receptor 1 (MCHR1) (Homo sapiens, UniProt Q99705)", "experimental.result": 0.031}

[a] CN(Cc1ccc(SC2CN(C(=O)c3nnc(-c4ccccc4)o3)C2)cc1)C1CCOCC1
[b] Cc1ccc(-c2nnc(C(=O)N3CC(Oc4ccc(CN(C)C)cc4C)C3)o2)cc1
[c] COc1ccc(-c2nnc(C(=O)N3CC(Oc4ccc(CN5CCN(C(C)=O)CC5)cc4)C3)o2)cc1
Query: Rank entries according to their IC50, from the largest number down. // format: requested-order list of labels
Reply: c, b, a
(c: 0.044 µM, b: 0.025 µM, a: 0.012 µM)

----------
target.under.test: Melanin Concentrating Hormone Receptor 1 (MCHR1) (Homo sapiens, UniProt Q99705)
Construct: expressed in transfected cells
assay.remarks: MCHR1 Receptor Activation Assay (GTPγ^35S)
Format: biochemical
test.conditions: read-out: GTPγ^35S IC50
recorded.endpoint: IC50 (nM)

Past entries and their recorded results:
{"molecule": "CC1(O)CCCN(Cc2ccc(OC3CN(C(=O)c4nnc(-c5ccccc5)o4)C3)cc2)CC1 (centres unmarked)", "IC50 / nM": 8.1}
{"molecule": "CN(C)Cc1ccc(OC2CN(C(=O)c3nnc(-c4ccccc4)o3)C2)c(F)c1F", "IC50 / nM": 49}
{"molecule": "COc1cc(OC2CN(C(=O)c3nnc(-c4ccccc4)o3)C2)ccc1CN1CCOCC1", "IC50 / nM": 21}

[1] CCC1(O)CN(Cc2ccc(OC3CN(C(=O)c4nnc(-c5ccccc5)o4)C3)cc2)C1
[2] Cc1cc(CN2CCN(C)CC2)ccc1OC1CN(C(=O)c2nnc(-c3ccccc3)o2)C1
Query: Between item 1 and item 2 , which reported IC50 is smaller? Pick one and reply with its label.
Reply: 1
(1: 23 nM, 2: 44 nM)

[A] CN1CCN(Cc2ccc(OC3CN(C(=O)c4nnc(-c5ccccc5)o4)C3)cc2F)CC1
[B] COc1ccc(-c2nnc(C(=O)N3CC(Oc4ccc(CN5CC(O)(C6CC6)C5)cc4)C3)o2)cc1
Query: Compare reported IC50 values for A and B . Which is lower? Your choice should be expressed through its label.
Reply: B
(B: 13 nM, A: 86 nM)

----------
target.under.test: Melanin Concentrating Hormone Receptor 1 (MCHR1) (Homo sapiens, UniProt Q99705)
Construct: expressed in transfected cells
assay.remarks: MCHR1 Receptor Activation Assay (GTPγ^35S)
Format: biochemical
test.conditions: separated enantiomers of Example 84 (chiral chromatography fractions); assay not given; read-out: IC50
recorded.endpoint: IC50 (µM)

{"compound": "COc1ccc(-c2nnc(C(=O)N3CC(Oc4ccc(CN5CCC(C)(CO)C5)cc4)C3)o2)cc1 (single isomer, unassigned; (+)) [Example E2]", "target.under.test": "Melanin Concentrating Hormone Receptor 1 (MCHR1) (Homo sapiens, UniProt Q99705)", "quantity.unit": "µM", "IC50": 0.024}
{"compound": "COc1ccc(-c2nnc(C(=O)N3CC(Oc4ccc(CN5CCC(C)(CO)C5)cc4)C3)o2)cc1 (single isomer, unassigned; (-)) [Example E1]", "target.under.test": "Melanin Concentrating Hormone Receptor 1 (MCHR1) (Homo sapiens, UniProt Q99705)", "quantity.unit": "µM", "IC50": 0.028}

----------
target.under.test: Melanin Concentrating Hormone Receptor 1 (MCHR1) (Homo sapiens, UniProt Q99705)
Construct: expressed in transfected cells
assay.remarks: MCHR1 Receptor Activation Assay (GTPγ^35S)
Format: biochemical
test.conditions: read-out: GTPγ^35S IC50
pIC50: −log10 of the molar value.
recorded.endpoint: pIC50

Please review the entries below; each comes with its answer.
{"structure.smiles": "CCC1(O)CN(Cc2ccc(OC3CN(C(=O)c4nnc(-c5ccccc5)o4)C3)c(C)c2)C1", "recorded.endpoint": "pIC50", "experimental.result": 7.74}
{"structure.smiles": "COc1ccc(-c2nnc(C(=O)N3CC(Oc4ccc(CN5CCC(C)(CO)CC5)cc4)C3)o2)cc1", "recorded.endpoint": "pIC50", "experimental.result": 7.60}

[P] CN(C)Cc1ccc(OC2CN(C(=O)c3nnc(-c4ccccc4)o3)C2)cc1Cl
[Q] COc1ccc(-c2nnc(C(=O)N3CC(Oc4ccc(CN5CC(C)(O)C5)cc4Cl)C3)o2)cc1
Query: Sort P and Q by pIC50 descending and give the first. Give the label of your selection.
Reply: P
(P: 7.74, Q: 7.47)

----------
target.under.test: Melanin Concentrating Hormone Receptor 1 (MCHR1) (Homo sapiens)
Construct: expressed in transfected cells
assay.remarks: MCHR1 Receptor Activation Assay (GTPγ^35S)
Assay type: biochemical
test.conditions: read-out: GTPγ^35S IC50
pIC50: −log10 of the molar value. Counter-ions that a name gives are not always drawn.
recorded.endpoint: pIC50

Here is how some compounds turned out for pIC50.
{"compound": "COc1ccc(-c2nnc(C(=O)N3CC(Oc4ccc(CN5CCCC(O)CC5)cc4)C3)o2)cc1 (centres unmarked) [Example 86]", "experimental.result": 7.82}
{"compound": "COc1ccc(-c2nnc(C(=O)N3CC(Oc4ccc(CN5CCC(CO)CC5)cc4)C3)o2)cc1 [Example 89]", "experimental.result": 7.66}
{"compound": "CCC1(O)CN(Cc2ccc(OC3CN(C(=O)c4nnc(-c5ccc(OC)cc5)o4)C3)c(C)c2)C1 [Example 72]", "experimental.result": 7.82}

[I] COc1ccc(-c2nnc(C(=O)N3CC(Sc4ccc(CN5CCCC5)cc4)C3)o2)cc1 [Example 59]
[II] Cc1ccc(-c2nnc(C(=O)N3CC(Oc4ccc(CN5CCOCC5)cc4C)C3)o2)cc1 [Example 13]
Query: Return label of the item with the larger pIC50. Candidates: I , II . Response format: the label of the selected entry.
Reply: I
(I: 7.96, II: 7.54)

[A] COc1ccc(-c2nnc(C(=O)N3CC(Oc4ccc(CN(C)C)cc4C)C3)o2)cc1 [Example 17]
[B] O=C(c1nnc(-c2ccccc2)o1)N1CC(Sc2ccc(CNC3CC3)cc2)C1 [Example 66]
[C] COc1ccc(-c2nnc(C(=O)N3CC(Oc4ccc(CN5CCN(C)CC5)cc4C)C3)o2)cc1 [Example 10]
[D] CC(=O)N1CCN(Cc2ccc(OC3CN(C(=O)c4nnc(-c5ccccc5)o4)C3)cc2)CC1 [Example 23]
Query: Put the items in order so that reported pIC50 rises from first to last. Respond with an ordered listing of the labels, as requested.
Reply: D, C, A, B

[a] CN(C)Cc1ccc(OC2CN(C(=O)c3nnc(-c4ccc(OC(F)F)cc4)o3)C2)cc1F [Example 51]
[b] COc1ccc(-c2nnc(C(=O)N3CC(Oc4ccc(CN5CCC(C)(CO)C5)c(C)c4)C3)o2)cc1 (centres unmarked) [Example 91]
Query: Please choose the item with the lower pIC50 value from this pair: a and b Kindly state the label of the option you pick.
Reply: a
(a: 7.72, b: 7.96)

[a] O=C(c1nnc(-c2ccc(C(F)(F)F)cc2)o1)N1CC(Oc2ccc(CN3CCCC3)cc2)C1 [Example 5, formate]
[b] O=C(c1nnc(-c2ccccc2)o1)N1CC(Oc2ccc(CN3CC(O)C3)cc2Cl)C1 [Example 58]
Query: Of a and b , which one carries the higher reported pIC50? Which one? Tell me its label.
Reply: a
(a: 7.82, b: 7.54)

[1] O=C(c1nnc(-c2ccccc2)o1)N1CC(Sc2ccc(CN3CC(CO)C3)cc2)C1 [Example 67]
[2] O=C(c1nnc(-c2ccc(Cl)cc2)o1)N1CC(Oc2ccc(CN3CCCC3)cc2)C1 [Example 1]
Query: Please state the entry with greater pIC50 among 1 and 2 . Field: selected label. Fill in the label of the entry you choose.
Reply: 2
(2: 8.15, 1: 7.64)

[a] O=C(c1nnc(-c2ccc(F)cc2)o1)N1CC(Oc2ccc(CN3CCCC3)cc2)C1 [Example 4]
[b] Cc1cc(CN2CCCC2)ccc1OC1CN(C(=O)c2nnc(-c3ccc(Cl)cc3)o2)C1 [Example 19]
Query: Two entries are listed, a and b . Which one carries the higher pIC50? Return value: the label identifying the chosen record.
Reply: b

[I] COc1ccc(-c2nnc(C(=O)N3CC(Oc4ccc(CN(C)C)cc4)C3)o2)cc1 [Example 38]
[II] CCC1(O)CN(Cc2ccc(OC3CN(C(=O)c4nnc(-c5ccc(OC)cc5)o4)C3)cc2C)C1 [Example 73]
Query: Hi, I'm comparing two records. Which one has the lower pIC50, I or II ? When you have decided, please share the label of that item.
Reply: I
(I: 7.57, II: 7.85)

[a] COc1ccc(-c2nnc(C(=O)N3CC(Oc4ccc(CN(C)C)c(Cl)c4)C3)o2)cc1 [Example 47]
[b] Cc1cc(CN2CCOCC2)ccc1OC1CN(C(=O)c2nnc(-c3ccccc3)o2)C1 [Example 14]
Query: // compare measured pIC50 between a and b ; output the lower one Write down the label of the entry you select.
Reply: b
(b: 7.52, a: 7.72)
